assay: NCI Yeast Anticancer Drug Screen. Data for the sgs1 mgt1 strain (AID 161);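 further: 0% = growth of cultures given vehicle only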; conditions: S. cerevisiae sgs1 mgt1 strain, hits give high values; at 50.0 µM unless noted
The panel holds about 79,000 compounds, 15% with a hit somewhere; the sample as a whole holds those more often.
Observed property: growth inhibition (%)

>>> val("Cc1cccc(NC(=O)Nc2ccccc2Cl)n1")
24.4
>>> val("CC(C)N(C(=O)c1ccc(C(=O)N(c2ccccc2)C(C)C)cc1)c1ccccc1")
-1.25
>>> val("c1ccc(CN2CCOC2)cc1")
-13.1
>>> val("COc1ccc(NC(=O)CC(=O)n2nc(-c3ccccc3)c(N=Nc3ccccc3C(=O)O)c2-c2ccccc2)cc1")
-2.05
>>> val("CC(C)CCOC(=O)C(O)c1ccccc1 (centres undefined)")
0.4
>>> val("Cc1cc(N)c(N)cc1C")
52.2
>>> val("O=C1OC(Oc2ccccc2)c2cc3c(cc21)OCO3 (centres undefined)")
21.3
>>> val("COc1cc2c[n+](C)c3c4cc(OC)c(OC)cc4c(OCc4ccccc4)cc3c2cc1OC")
88.1
>>> val("ONc1ccc2c(c1)C1C(C3C2C2(Cl)C(Cl)=C(Cl)C3(Cl)C2(Cl)Cl)C2(Cl)C(Cl)=C(Cl)C1(Cl)C2(Cl)Cl (centres undefined)")
7.55
>>> val("CCCSc1ncnc2nc[nH]c12")
9.7
>>> val("CC(O)c1ccc[cH-]1.CC(O)c1ccc[cH-]1.[Fe+2] (centres undefined)")
-5.55
>>> val("COC(=O)C1(C)CCCC2(C)C1CCC1(O)C(O)C(C(C)C)=CCC21 (centres undefined)")
2.55
>>> val("Cn1nc(-c2ccccc2)c(C(=O)/C=C/c2ccccc2)c(N2CCCCC2)c1=O")
-11.5
>>> val("O=c1[nH]nc(Cc2ccccc2)n1C1CCCC1")
-12.6
>>> val("O=C(O)c1cscc1Cc1cccs1")
-43.6
>>> val("NCc1cc(Br)ccc1O")
23.5
>>> val("COC(=O)c1ccc(Oc2nc3ccc(C(F)(F)F)cc3nc2-c2ccccc2)cc1")
14.3
>>> val("Nc1ccc(N=Nc2c(S(=O)(=O)O)cc3ccccc3c2S(=O)(=O)O)cc1")
-38.2
>>> val("CCc1ccc2c(-c3ccccc3)c3c(-c4ccccc4)c4ccccc4c(-c4ccccc4)c3c(-c3ccccc3)c2c1")
-5.8
>>> val("COC(=O)Cc1cc(C)n(C)c(=O)c1CN1C(=O)c2ccccc2C1=O")
5.4
>>> val("Oc1cccnc1Cl")
17.4
>>> val("O=C1c2cccc3c([N+](=O)[O-])ccc(c23)C(=O)N1Cc1cccnc1")
99.5
>>> val("COc1cccc(C(=O)c2ccncc2C)c1OC")
9.95
>>> val("Nc1nccs1")
4.75
